Numbers sourced from PubChem BioAssay (NCI).

Tested on: NCI/ADR-RES ovarian
experiment.description: NCI tumour cell line growth inhibition, 48 h
Listed below: TGI values for each entry.
Enter your answer as a number in µM; do not include the unit.

[
  {
    "compound": "C[C@@H]1CCC2[C@@H](C)[C@H](OC(=O)CCC(=O)NCCNC(=O)Cc3cc(=O)oc4cc(N(C)C)ccc34)O[C@@H]3O[C@]4(C)CC[C@@H]1C23OO4 (some centres not stated)",
    "measured.endpoint": "TGI",
    "reported.measurement": 22.9
  }
]

Give the measured TGI of CN(C)CCN1C(=O)c2cccc3c(-c4ccc5ncn(C6CCCCC6)c5c4)ccc(c23)C1=O .
13.4

Value lookup for TGI; key = O=C(Nn1c2c(sc1=NC1CC1)C(=O)c1ccccc1C2=O)c1cc2ccc1CCc1ccc(cc1)CC2
6.77
